Every entry's value here was drawn from patent US20210388105A1.

# ASSAY_SYSTEM: T1, KW27-13 (human CD39 mutant, C-terminal EGFP) (human, UniProt P49961 1-510)
# T1 construct: expressed on HEK293F cells; not shown: C-terminal EGFP fusion (vector pCMV3-GFPSpark)
# T1 chain: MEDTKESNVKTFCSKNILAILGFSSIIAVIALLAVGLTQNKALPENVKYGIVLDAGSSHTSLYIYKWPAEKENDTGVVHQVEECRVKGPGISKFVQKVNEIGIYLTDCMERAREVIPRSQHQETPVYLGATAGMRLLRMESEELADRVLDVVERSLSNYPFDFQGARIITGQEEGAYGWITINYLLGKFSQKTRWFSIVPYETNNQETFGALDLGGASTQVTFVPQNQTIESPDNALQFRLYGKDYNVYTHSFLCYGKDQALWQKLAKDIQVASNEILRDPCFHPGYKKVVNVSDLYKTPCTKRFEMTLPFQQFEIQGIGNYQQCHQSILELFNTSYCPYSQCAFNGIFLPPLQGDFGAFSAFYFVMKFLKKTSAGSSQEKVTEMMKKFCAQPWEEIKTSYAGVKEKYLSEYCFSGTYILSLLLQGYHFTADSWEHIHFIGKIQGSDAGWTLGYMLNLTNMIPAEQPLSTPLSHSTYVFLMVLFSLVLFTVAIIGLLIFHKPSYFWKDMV
# ASSAY_SUMMARY: FACS, mutant-EGFP on HEK293F cells
READOUT_LABEL: binding result

Respond only with binding result recorded for c35 (antibody, V domains shown, its making is not described; also called chimeric antibody c35) VH: EVRLQQSGAELVKPGASVKLSCTASGFNIEDTYVHWMKQRPEQGLEWIGRIDPAIDNSKYDPKFQGKATITAVSSSNTAYLQLSSLTSEDTAVYYCALYDGYNVYAMDYWGQGTSVTVSS VL: DIVMTQAAFSNPVTLGTSASISCRSSKNLLHSNGITYLYWYLQRPGQSPQLLIYRASTLASGVPNRFSGSESGTDFTLRISRVEAEDVGVYYCAQLLELPHTFGGGTKLEIK binds

Respond only with binding result recorded for Antibody 9-8B (antibody, V domains shown) VH: QIQLVQSGPELKKPGETVKISCKASGYTFTHYGMNWVKQAPGKGLKWMGWINTYTGELTYADDFKGRFAFSLETSASTAYLQINNLKNEDTATYFCARRAYYRYDYVMDYWGQGTSVTVSS VL: DIVMTQSQKFMSTSVGDRVSVTCKASHNVGTNVAWYQQKPGQSPKALIYSASYRYSGVPGRFTGSGSGTDFTLTISNVQSEDLAEYFCHQYNNYPYTFGGGTKLEIK binds

Respond only with binding result recorded for c34 (antibody, V domains shown, its making is not described; also called chimeric antibody c34) VH: EIQVQQSGPELVKPGASVKVSCKASGYSFTDYNMYWVKQSHGKSLEWIGFIDPYNGYTSYNQKFKGKATLTIDKSSSTAFMHLNSLTSEDSAVYYCAIYGYDDAYYFDYWGQGTTLTVSS VL: QIVLTQSPAIMSASPGEKVTITCSATSSVSYMHWFRQKPGTSPKLWIYSTSNLASGVPARFSGSGSGTSYSLTISRMAAEDAATYYCQQRITYPFTFGSGTKLEIT binds
